study.target: FGFR3 (Homo sapiens, UniProt P22607)
Sequence (P22607 23-806): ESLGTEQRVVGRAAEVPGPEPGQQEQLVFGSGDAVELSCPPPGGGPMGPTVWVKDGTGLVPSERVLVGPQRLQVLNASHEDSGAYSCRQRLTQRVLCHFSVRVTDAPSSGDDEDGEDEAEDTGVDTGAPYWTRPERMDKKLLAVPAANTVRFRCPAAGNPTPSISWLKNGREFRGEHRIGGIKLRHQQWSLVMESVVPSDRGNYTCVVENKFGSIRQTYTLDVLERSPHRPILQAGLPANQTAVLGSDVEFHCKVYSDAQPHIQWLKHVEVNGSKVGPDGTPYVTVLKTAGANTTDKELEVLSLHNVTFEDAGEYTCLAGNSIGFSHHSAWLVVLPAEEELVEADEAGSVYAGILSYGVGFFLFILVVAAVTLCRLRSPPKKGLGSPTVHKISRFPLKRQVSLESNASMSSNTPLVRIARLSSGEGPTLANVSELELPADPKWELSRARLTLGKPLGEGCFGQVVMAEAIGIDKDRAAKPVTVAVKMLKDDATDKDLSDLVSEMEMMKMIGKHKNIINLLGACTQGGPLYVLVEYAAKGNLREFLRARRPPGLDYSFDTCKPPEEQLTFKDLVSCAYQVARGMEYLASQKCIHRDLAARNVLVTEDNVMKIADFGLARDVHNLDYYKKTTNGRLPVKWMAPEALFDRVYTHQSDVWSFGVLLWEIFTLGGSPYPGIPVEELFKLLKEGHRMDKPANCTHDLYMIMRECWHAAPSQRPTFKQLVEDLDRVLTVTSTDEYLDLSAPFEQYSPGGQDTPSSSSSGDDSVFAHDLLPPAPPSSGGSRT
experiment.summary: FDCP-FGFR3 proliferation assay performed with FGF9
Assay type: cell-based
assay.setup: dimeric dHLX format
pIC50: −log10 of the molar value.
experimental.endpoint: pIC50

PRO-002: HuCAL clone anti-FGFR3 antibody; VH-CDR3 SEQ ID NO:2, VL-CDR3 SEQ ID NO:11 (antibody, V domains shown) VH: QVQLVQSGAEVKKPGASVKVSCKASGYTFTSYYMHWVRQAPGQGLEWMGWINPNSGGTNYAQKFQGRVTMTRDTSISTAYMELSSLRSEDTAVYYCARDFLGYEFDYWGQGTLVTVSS VL: DIELTQPPSVSVAPGQTARISCSGDALGDKYASWYQQKPGQAPVLVIYDDSDRPSGIPERFSGSNSGNTATLTISGTQAEDEADYYCQSYDYSADYVFGGGTKLTVLGQ	6.44
